Hey, just so you know, these numbers are from patent US7919488B2.

- System Under Test: recombinant CYP3A4-b5 enzyme (Baculosomes®) (Homo sapiens)
- Construct: purchased Invitrogen (Carlsbad, Calif.)
- Sequence (P08684 whole entry): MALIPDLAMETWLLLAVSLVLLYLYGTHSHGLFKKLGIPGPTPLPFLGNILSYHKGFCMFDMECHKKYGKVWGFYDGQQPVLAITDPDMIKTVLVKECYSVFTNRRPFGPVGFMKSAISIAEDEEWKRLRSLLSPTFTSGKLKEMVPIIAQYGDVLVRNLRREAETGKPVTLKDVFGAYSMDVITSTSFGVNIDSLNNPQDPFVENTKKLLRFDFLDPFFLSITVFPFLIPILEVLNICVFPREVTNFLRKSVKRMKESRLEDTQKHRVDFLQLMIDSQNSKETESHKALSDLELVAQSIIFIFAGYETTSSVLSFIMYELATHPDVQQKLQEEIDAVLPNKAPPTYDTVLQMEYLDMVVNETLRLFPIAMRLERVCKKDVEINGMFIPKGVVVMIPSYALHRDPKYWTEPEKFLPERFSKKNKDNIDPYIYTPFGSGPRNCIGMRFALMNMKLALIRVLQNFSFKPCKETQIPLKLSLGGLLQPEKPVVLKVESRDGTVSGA
- Test Name: Kiapp against recombinant CYP3A4 enzyme (Baculosomes), BFC substrate
- Format: biochemical
- Condition Info: recombinant CYP3A4-b5 (Invitrogen), 5 uM BFC, 200 uM NADPH, pre-incubation at least 30 minutes, pH 7.0, room temperature
Checkbox rule: Ki lower than 0.1 µM = Satisfied; Ki not lower than 0.1 µM = Not satisfied.

- CC(=O)N(C)C1CCN(C(=O)Cn2nc(-c3ccncc3)cc2Cc2ccc(F)cc2)C1 (stereo not drawn): Not satisfied
- O=C(Cn1nc(-c2ccncc2)cc1Cc1ccc(F)cc1)N1CCNCC1: Not satisfied
- CC(C)(CN1CCOCC1)NC(=O)Cn1nc(-c2ccnnc2)cc1Cc1ccc(F)cc1: Not satisfied
- CC(C)(O)CNC(=O)Cn1nc(-c2ccncc2)cc1Cc1ccc(F)cc1: Satisfied
- CCCN(C)C1(C(N)=O)CCN(C(=O)Cn2nc(-c3ccncc3)cc2Cc2ccc(F)cc2)CC1: Satisfied
- CCNC(=O)NC1CCN(C(=O)Cn2nc(-c3ccncc3)cc2Cc2ccc(F)cc2)CC1: Satisfied
- O=C(CCN1CCOCC1)N1CC(n2nc(-c3ccncc3)cc2Cc2ccc(F)cc2)C1: Satisfied
- O=C(Cn1nc(-c2ccncc2)cc1Cc1ccc(F)cc1)N1CCC(N2CCOC2=O)CC1: Satisfied
- CC(C)(CN1CCOCC1)NC(=O)Cn1nc(-c2ccncc2)cc1Cc1ccc(F)cc1: Satisfied
- CS(=O)(=O)CCN1CCN(C(=O)Cn2nc(-c3ccncc3)cc2Cc2ccc(F)cc2)CC1: Satisfied
- O=C(Cn1nc(-c2ccncc2)cc1Cc1ccc(F)cc1)N1CCCC(N2CCOCC2)CC1 (stereo not drawn): Satisfied
- CS(=O)(=O)N1CC(n2nc(-c3ccncc3)cc2Cc2ccc(F)cc2)C1: Not satisfied
- O=C(Cn1nc(-c2ccncc2)cc1Cc1ccc(F)cc1)N1CCC[C@@H]1CO: Not satisfied
- Cc1noc(CCNC(=O)Cn2nc(-c3ccncc3)cc2Cc2ccc(F)cc2)n1: Not satisfied
- CC(C)OC(=O)N(C)C1CCN(C(=O)Cn2nc(-c3ccncc3)cc2Cc2ccc(F)cc2)CC1: Satisfied
- CCn1ccnc1CNC(=O)Cn1nc(-c2ccncc2)cc1Cc1ccc(F)cc1: Satisfied
- CS(=O)(=O)NC1CCN(C(=O)Cn2nc(-c3ccncc3)cc2Cc2ccc(F)cc2)CC1: Not satisfied
- CCNC(=O)N(C)C1CCN(C(=O)Cn2nc(-c3ccncc3)cc2Cc2ccc(F)cc2)CC1: Satisfied
- CC(C)NC(=O)NC1CCN(C(=O)Cn2nc(-c3ccncc3)cc2Cc2ccc(F)cc2)CC1: Satisfied
- CCC(=O)N1CC(n2nc(-c3ccncc3)cc2Cc2ccc(F)cc2)C1: Not satisfied
- O=C(Cn1nc(-c2ccncc2)cc1Cc1ccc(F)cc1)N1CCC(N2CCCC2=O)CC1: Satisfied
- CN1CCN(C(=O)Cn2nc(-c3ccncc3)cc2Cc2ccc(F)cc2)CC1: Not satisfied
- CN(C)[C@@H]1CCN(C(=O)Cn2nc(-c3ccncc3)cc2Cc2ccc(F)cc2)C1: Not satisfied
- CCC(=O)N(C)C1CCN(C(=O)Cn2nc(-c3ccncc3)cc2Cc2ccc(F)cc2)CC1: Satisfied
- CNC(=O)NC1CCN(C(=O)Cn2nc(-c3ccncc3)cc2Cc2ccc(F)cc2)CC1: Not satisfied
- CNC(=O)NC1CN(C(=O)Cn2nc(-c3ccncc3)cc2Cc2ccc(F)cc2)C1: Not satisfied
- NC1CCN(C(=O)Cn2nc(-c3ccncc3)cc2Cc2ccc(F)cc2)CC1: Not satisfied
- CNC1CCN(C(=O)Cn2nc(-c3ccncc3)cc2Cc2ccc(F)cc2)C1 (stereo not drawn): Not satisfied
- CC(=O)N(C)C1CCN(C(=O)Cn2nc(-c3c[nH]cn3)cc2Cc2ccc(F)cc2)CC1: Not satisfied
- O=C(Cn1nc(-c2ccncc2)cc1Cc1ccc(F)cc1)N1CCC(N2CCOCC2)CC1: Satisfied
- Fc1ccc(Cc2cc(-c3ccncc3)nn2Cc2nc(-c3ncccn3)no2)cc1: Satisfied
- CN(C(=O)Cn1nc(-c2ccncc2)cc1Cc1ccc(F)cc1)[C@H]1CC[C@@H](O)CC1: Not satisfied
